ASSAY: Cellular viability qHTS for adrenocortical cancer (ACC) cell line SW-13 (AID 1963989);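 also: cells grown in serum-free medium with ITS supplement; % is scaled to controls: 0 for no effect and ±100 for the full control effect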
RUN_PARAMETERS: SW-13 ACC cells viability, CellTiter-Glo, 48 h; stronger effect = lower value
Records with an inconclusive call do not appear.
Parameter: activity (max response). Scope: all listed entries.
Give the number; % is assumed, so skip it.

| MOLECULE | READOUT_UNITS | activity (max response) |
| --- | --- | --- |
| N=C(N=C(N)N)N1CCOCC1 | % | -4.25 |
| Cc1ccc(S(=O)(=O)NC(=O)NC2CCCCCCC2)cc1 | % | 11.9 |
| O=C(O)[C@@H](c1ccc(OCc2ccc3ccccc3n2)cc1)C1CCCC1 | % | -1.81 |
| CN1[C@@H]2CCC[C@H]1CC(NC(=O)c1nn(C)c3ccccc13)C2 (stereo partly drawn) | % | 2.83 |

Note down activity (max response) recorded for NC1(C(=O)N[C@@H](CCO)c2ccc(Cl)cc2)CCN(c2ncnc3[nH]ccc23)CC1
-21.3

Note down activity (max response) recorded for Cc1ccc(S(=O)(=O)Nc2nc3ccccc3nc2Nc2ccc3nsnc3c2)cc1
0.221

Note down activity (max response) recorded for CCOC(=O)[C@@H](N)CCC(=O)N[C@@H](CSCc1ccccc1)C(=O)N[C@@H](C(=O)OCC)c1ccccc1
-10.6

Note down activity (max response) recorded for COc1cc(OC)c2c(=O)[nH]c(-c3cc(C)c(OCCO)c(C)c3)nc2c1
-6.15

Note down activity (max response) recorded for CN1CCN(C(=O)[C@H]2[C@@H](C(=O)O)[C@H]3CC[C@@H]2O3)CC1
-7.83

Note down activity (max response) recorded for C[C@H]1CNCCCN1S(=O)(=O)c1cccc2cncc(F)c12
-17.2

Note down activity (max response) recorded for Oc1cc(O)c2c(c1)O[C@H](c1ccc(O)c(O)c1)[C@H](O)C2
11.2

Note down activity (max response) recorded for C[C@H]1C[C@H](O)c2ccsc2S1(=O)=O
10.4

Note down activity (max response) recorded for CN(C)c1ccc(-c2nc3ncc(Cl)c(N4CCN(CC(=O)Nc5nccs5)CC4)c3[nH]2)cc1
-12.9
